- Tested on: HCT116 cells
- protocol-notes: MTT assay
- Type: cell-based
- test-conditions: Homo sapiens, HCT-116, 72 h, Table 5F; HCT116 cells, 72 hours
pIC50: −log10 of the molar value.
property-name: pIC50

[I] COc1ccc(Cn2c(=O)n(Cc3ccc(C(=O)Nc4ccccc4N)cc3)c(=O)c3ccccc32)cc1 [Cpd 345]
[II] Nc1cscc1NC(=O)c1ccc(CNc2nc3ccc(OCCN4CCOCC4)cc3s2)cc1 [Cpd 573]
**Q:** Please indicate which item has the smaller measured pIC50: I versus II Choose, then provide that item's label.
**A:** I

[A] COc1ccc(NCc2ccc(C(=O)Nc3ccccc3N)cc2)cn1 [Cpd 421]
[B] Nc1ccccc1NC(=O)c1ccc(NCc2nc3ccccc3[nH]2)cc1 [Cpd 334]
**Q:** Hi, I'm comparing A with B and wondering which one has the bigger number for pIC50. Any idea? Choose, then provide that item's label.
**A:** B

[1] CCCCn1cnc2c(NCc3ccc(C(=O)Nc4ccccc4N)cc3)nc(N)nc21 [Cpd 330]
[2] COc1ccc(NC(=O)N(Cc2ccc(C(=O)Nc3ccccc3N)cc2)c2ccc(OC)c(OC)c2)cc1OC [Cpd 371]
**Q:** Hi, I'm comparing 1 with 2 and wondering which one has the bigger number for pIC50. Any idea? Choose, then provide that item's label.
**A:** 2

* * *

- study-system: cloned recombinant human HDAC-1 (Homo sapiens, UniProt Q13547)
- Construct: made in house; host or cells: Baculovirus insect cell expression system
- Sequence (Q13547 whole entry): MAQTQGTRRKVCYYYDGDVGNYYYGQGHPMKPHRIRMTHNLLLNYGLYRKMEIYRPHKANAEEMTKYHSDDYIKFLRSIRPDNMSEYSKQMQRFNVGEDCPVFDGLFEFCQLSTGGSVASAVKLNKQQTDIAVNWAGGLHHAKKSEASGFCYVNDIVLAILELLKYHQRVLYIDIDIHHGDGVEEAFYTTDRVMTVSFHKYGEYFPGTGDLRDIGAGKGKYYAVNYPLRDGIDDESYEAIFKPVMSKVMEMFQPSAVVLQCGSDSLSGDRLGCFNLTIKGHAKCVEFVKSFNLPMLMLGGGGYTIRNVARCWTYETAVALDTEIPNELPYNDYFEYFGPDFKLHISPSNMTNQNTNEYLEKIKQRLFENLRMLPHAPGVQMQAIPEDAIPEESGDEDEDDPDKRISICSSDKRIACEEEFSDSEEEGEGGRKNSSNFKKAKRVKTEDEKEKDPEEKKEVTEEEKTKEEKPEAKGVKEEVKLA
- protocol-notes: Human HDAC-1 enzyme inhibition, Assay 1 ([3H]-acetylated histone substrate, scintillation counting)
- Assay type: biochemical
- test-conditions: Table 5F; read-out: Human HDAC-1 IC50
- Method: Assay 1. HDAC inhibitors were screened against a cloned recombinant human HDAC-1 enzyme expressed and purified from a Baculovirus insect cell expression system. […] The mixture was extracted with ethyl acetate and the released [^3H]-acetic acid was quantified by scintillation counting. […] IC50 values for HDAC enzyme inhibitors were determined by performing dose response curves with individual compounds and determining the concentration of inhibitor producing fifty percent of the maximal inhibition.
property-name: IC50 (µM)

C[Si](C)(C)C#Cc1ccc(C(=N)Nc2ccccc2N)cc1 | 24

[A] COc1ccc2[nH]c(SCc3ccc4oc(C(=O)Nc5ccccc5N)cc4c3)nc2c1
[B] Nc1ccccc1NC(=O)c1ccc(NCc2ccc(OC(F)(F)F)cc2)cc1
**Q:** Please indicate which item has the smaller measured IC50: A versus B Choose, then provide that item's label.
**A:** B

* * *

- study-system: cloned recombinant human HDAC-1 (Homo sapiens)
- Construct: made in house; host or cells: Baculovirus insect cell expression system
- protocol-notes: Human HDAC-1 enzyme inhibition, Assay 1 ([3H]-acetylated histone substrate, scintillation counting)
- Type: biochemical
- test-conditions: Table 5a; read-out: Human HDAC-1 IC50
- Description: Assay 1. HDAC inhibitors were screened against a cloned recombinant human HDAC-1 enzyme expressed and purified from a Baculovirus insect cell expression system. […] The mixture was extracted with ethyl acetate and the released [^3H]-acetic acid was quantified by scintillation counting. […] IC50 values for HDAC enzyme inhibitors were determined by performing dose response curves with individual compounds and determining the concentration of inhibitor producing fifty percent of the maximal inhibition.
property-name: IC50 (µM)

Nc1nc(NCCc2ccccc2F)nc(NCc2ccc(C(=O)Nc3ccccc3N)cc2)n1 | 3
Nc1nc(NCc2ccc(C(=O)Nc3ccccc3N)cc2)nc(NC2CCc3ccccc32)n1 (centres unmarked) | 2
Nc1ccccc1NC(=O)c1ccc(CNc2nc(NCc3ccccc3)nc(NC3Cc4ccccc4C3)n2)cc1 | 0.8

[A] Nc1nc(NCc2ccccc2)nc(NCc2ccc(C(=O)Nc3ccccc3N)cc2)n1
[B] Nc1nc(NCc2ccc(/C=C/C(=O)Nc3ccccc3N)cc2)nc(NC2Cc3ccccc3C2)n1
**Q:** Please indicate which item has the smaller measured IC50: A versus B Choose, then provide that item's label.
**A:** A
(A: 2 µM, B: 3 µM)
